# target_desc: T1, human TREM2 (triggering receptor expressed on myeloid cells 2) (human) (UniProt Q9NZC2)
# T1 sequence (looked up): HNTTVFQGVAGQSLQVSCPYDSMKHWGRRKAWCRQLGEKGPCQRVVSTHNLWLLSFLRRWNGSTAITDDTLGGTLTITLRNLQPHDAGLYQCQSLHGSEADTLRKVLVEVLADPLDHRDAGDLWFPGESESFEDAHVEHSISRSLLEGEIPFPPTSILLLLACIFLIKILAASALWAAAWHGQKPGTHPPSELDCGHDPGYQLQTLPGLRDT
# protocol_notes: 1st screen, 10 nM Ab
measure: Binding Signal (fold over 6E7 parental antibody) (fold)
The figure you give is taken to be in fold; do not add the unit.

Recorded Binding Signal (fold over 6E7 parental antibody) (binder 6E7 antibody affinity modulation variant V49 (antibody, V domains shown) VH: EVQLVQSGAEVKKPGESLKISCKGSGYSFNSYWIAWVRQMPGKGLEWMGTIYPGDSDTRLSPSFQGQVTISADKSISTAYLQWSSLKASDTAMYFCARSRTFYYDSSDYFDYWGQGTLVTVSS VL: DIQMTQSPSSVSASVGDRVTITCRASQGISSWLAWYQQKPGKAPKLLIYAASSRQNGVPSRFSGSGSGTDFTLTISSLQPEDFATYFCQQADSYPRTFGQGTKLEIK ): 6.51

// Binding Signal (fold over 6E7 parental antibody) value for 6E7 antibody affinity modulation variant V64 (antibody, V domains shown) VH: EVQLVQSGAEVKKPGESLKISCKGSGYSFQSYWIAWVRQMPGKGLEWMGIIYPGDSDTRYSPSFQGQVTISADKSISTAYLQWSSLKASDTAMYFCARGRTFYYDSSDYFDYWGQGTLVTVSS VL: DIQMTQSPSSVSASVGDRVTITCRASQGISSWLAWYQQKPGKAPKLLIYAASSLANGVPSRFSGSGSGTDFTLTISSLQPEDFATYFCQQADSYPRTFGQGTKLEIK : 5.41

Input 6E7 antibody affinity modulation variant V74 (antibody, V domains shown) VH: EVQLVQSGAEVKKPGESLKISCKGSGYSFASYWIAWVRQMPGKGLEWMGIIYPGDSDVRYSPSFQGQVTISADKSISTAYLQWSSLKASDTAMYFCARGRTFYYDSSDYFDYWGQGTLVTVSS VL: DIQMTQSPSSVSASVGDRVTITCRASQGISSWLAWYQQKPGKAPKLLIYAASSLQLGVPSRFSGSGSGTDFTLTISSLQPEDFATYFCQQADSFPRTFGQGTKLEIK . Output Binding Signal (fold over 6E7 parental antibody): 3.94

Per the records, this binder ( 6E7 antibody affinity modulation variant V4 (antibody, V domains shown) VH: EVQLVQSGAEVKKPGESLKISCKGSGYSFGSYWIAWVRQMPGKGLEWMGIIYPGDSDTRVSPSFQGQVTISADKSISTAYLQWSSLKASDTAMYFCARSRTFYYDSSDYFDYWGQGTLVTVSS VL: DIQMTQSPSSVSASVGDRVTITCRASQGISSWLAWYQQKPGKAPKLLIYAASRLQNGVPSRFSGSGSGTDFTLTISSLQPEDFATYFCQQADSYPRTFGQGTKLEIK ) has Binding Signal (fold over 6E7 parental antibody) equal to 6

Attention now shifts to the item below.
According to the records, this binder 6E7 antibody affinity modulation variant V16 (antibody, V domains shown) VH: EVQLVQSGAEVKKPGESLKISCKGSGYSMTSYWIAWVRQMPGKGLEWMGIIYPGDGDTRYSPSFQGQVTISADKSISTAYLQWSSLKASDTAMYFCARSRTFYYDSSDYFDYWGQGTLVTVSS VL: DIQMTQSPSSVSASVGDRVTITCRASQGISSWLAWYQQKPGKAPKLLIYAASNLQNGVPSRFSGSGSGTDFTLTISSLQPEDFATYFCQQADSFPRTFGQGTKLEIK displays Binding Signal (fold over 6E7 parental antibody) of 4.01

The reported numbers originate from patent US20250019437A1.
